- Tested on: 186277-243-T-J2-PDC complex spheroid viability
- PROCEDURE_SUMMARY: Anticancer human tumor 186277-243-T-J2-PDC patient-derived colon adenocarcinoma cell line growth inhibition [GQUAD]
- STATED_CONDITIONS: second compound 1 µM; first compound 3.16 µM; stronger effect = lower value
READOUT_KIND: viability, T/C (%)
Please respond with the number in % and leave the unit unwritten.

These solved cases illustrate the format of a correct answer.
C=CC(=O)N1CCN(c2nc(=O)n(-c3c(C)ccnc3C(C)C)c3nc(-c4c(O)cccc4F)c(F)cc23)C(C)C1 (stereo not given) + CN(C)c1ccc(Nc2c3ccc(NC(=O)CCN4CCCC4)cc3nc3cc(NC(=O)CCN4CCCC4)ccc23)cc1    105
C=CC(=O)N1CCN(c2nc(=O)n(-c3c(C)ccnc3C(C)C)c3nc(-c4c(O)cccc4F)c(F)cc23)C(C)C1 (stereo not given) + Cc1[nH]c2ccc(F)cc2c1-c1nc2c3cccnc3c3ncccc3c2[nH]1    111
CC1COCCN1c1cc(-c2ccnn2C)c2ccnc(-c3ccn[nH]3)c2n1 (stereo not given) + CN(C)c1ccc(Nc2c3ccc(NC(=O)CCN4CCCC4)cc3nc3cc(NC(=O)CCN4CCCC4)ccc23)cc1    5.15
O=C(NO)c1cnc(N2CCN(S(=O)(=O)c3ccc4ccccc4c3)CC2)nc1 + Cc1cnc(CNC(=O)c2c(=O)c3ccc(N4CCCN(C)CC4)nc3n3c2sc2ccccc23)cn1    0.08

Consider now this further molecule.
Asked: Returns the measured viability, T/C for the input molecule. Input: O=c1[nH]cc(F)c(=O)[nH]1 + Cc1[nH]c2ccc(F)cc2c1-c1nc2c3cccnc3c3ncccc3c2[nH]1
Given back: 80.7

* * *

- Test system: 186277-243-T-J2-PDC complex spheroid viability
- PROCEDURE_SUMMARY: Anticancer human tumor 186277-243-T-J2-PDC cell line growth inhibition [GQUAD];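 note: spheroids exposed to drugs for 7 days; 100% = DMSO vehicle control viability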
- STATED_CONDITIONS: second compound 0.316 µM; first compound 1 µM; stronger effect = lower value
Flag rule - viability, T/C less than 90% flags class 1; the remaining entries get class 0.

Some solved cases for reference:
CC(=O)O[C@H]1C(=O)[C@@]2(C)[C@H]([C@H](OC(=O)c3ccccc3)[C@]3(O)C[C@H](OC(=O)[C@H](O)[C@@H](NC(=O)c4ccccc4)c4ccccc4)C(C)=C1C3(C)C)[C@]1(OC(C)=O)CO[C@@H]1C[C@@H]2O + Cc1[nH]c2ccc(F)cc2c1-c1nc2c3cccnc3c3ncccc3c2[nH]1    class 1
CC(=O)O[C@H]1C(=O)[C@@]2(C)[C@H]([C@H](OC(=O)c3ccccc3)[C@]3(O)C[C@H](OC(=O)[C@H](O)[C@@H](NC(=O)c4ccccc4)c4ccccc4)C(C)=C1C3(C)C)[C@]1(OC(C)=O)CO[C@@H]1C[C@@H]2O + CN(C)c1ccc(Nc2c3ccc(NC(=O)CCN4CCCC4)cc3nc3cc(NC(=O)CCN4CCCC4)ccc23)cc1    class 1

Asked: Item C=CCn1c(=O)c2cnc(Nc3ccc(N4CCN(C)CC4)cc3)nc2n1-c1cccc(C(C)(C)O)n1 + CN(C)c1ccc(Nc2c3ccc(NC(=O)CCN4CCCC4)cc3nc3cc(NC(=O)CCN4CCCC4)ccc23)cc1 : viability, T/C beneath 90%, strictly?
Given back: class 1

Asked: Problem: For the molecule COc1ncnc(C2CC2)c1-c1ncc2cnn(Cc3ccc(-c4nc(C(F)(F)F)cn4C(C)C)cc3)c2n1 + CN(C)c1ccc(Nc2c3ccc(NC(=O)CCN4CCCC4)cc3nc3cc(NC(=O)CCN4CCCC4)ccc23)cc1 , is viability, T/C under 90%?
Given back: class 0

Asked: Would you kindly verify if viability, T/C of CCCS(=O)(=O)Nc1ccc(F)c(C(=O)c2c[nH]c3ncc(-c4ccc(Cl)cc4)cc23)c1F + CN(C)c1ccc(Nc2c3ccc(NC(=O)CCN4CCCC4)cc3nc3cc(NC(=O)CCN4CCCC4)ccc23)cc1 is strictly less than 90%?
Given back: class 1

Asked: Record CC(=O)O[C@H]1C(=O)[C@@]2(C)[C@H]([C@H](OC(=O)c3ccccc3)[C@]3(O)C[C@H](OC(=O)[C@H](O)[C@@H](NC(=O)c4ccccc4)c4ccccc4)C(C)=C1C3(C)C)[C@]1(OC(C)=O)CO[C@@H]1C[C@@H]2O + Cc1cnc(CNC(=O)c2c(=O)c3ccc(N4CCCN(C)CC4)nc3n3c2sc2ccccc23)cn1 : is its viability, T/C strictly below 90%?
Given back: class 1

* * *

- Tested on: 186277-243-T-J2-PDC complex spheroid viability
- PROCEDURE_SUMMARY: Anticancer human tumor 186277-243-T-J2-PDC cell line growth inhibition [GQUAD]; active = viability on the fitted dose curve at most 10% of control; inactive = the rest;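 note: spheroids exposed to drugs for 7 days; 100% = DMSO vehicle control viability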
- STATED_CONDITIONS: second compound 0.0316 µM; first compound 0.316 µM
Form entry, call: pick from active, inactive

// below: answered molecules
COc1ncnc(C2CC2)c1-c1ncc2cnn(Cc3ccc(-c4nc(C(F)(F)F)cn4C(C)C)cc3)c2n1 + Cc1[nH]c2ccc(F)cc2c1-c1nc2c3cccnc3c3ncccc3c2[nH]1    inactive
CC(=O)O[C@H]1C(=O)[C@@]2(C)[C@H]([C@H](OC(=O)c3ccccc3)[C@]3(O)C[C@H](OC(=O)[C@H](O)[C@@H](NC(=O)c4ccccc4)c4ccccc4)C(C)=C1C3(C)C)[C@]1(OC(C)=O)CO[C@@H]1C[C@@H]2O + Cc1cnc(CNC(=O)c2c(=O)c3ccc(N4CCCN(C)CC4)nc3n3c2sc2ccccc23)cn1    active
COc1ccc([C@@H](O)c2cc(-c3ncnc4cc(N5CCOCC5)ccc34)c(F)cc2Cl)nn1 + Cc1[nH]c2ccc(F)cc2c1-c1nc2c3cccnc3c3ncccc3c2[nH]1    inactive
CCCS(=O)(=O)Nc1ccc(F)c(C(=O)c2c[nH]c3ncc(-c4ccc(Cl)cc4)cc23)c1F + CN(C)c1ccc(Nc2c3ccc(NC(=O)CCN4CCCC4)cc3nc3cc(NC(=O)CCN4CCCC4)ccc23)cc1    inactive

Asked: What is the recorded call for this molecule in the test? O=c1[nH]cc(F)c(=O)[nH]1 + Cc1cnc(CNC(=O)c2c(=O)c3ccc(N4CCCN(C)CC4)nc3n3c2sc2ccccc23)cn1
Given back: inactive

* * *

- Test system: 186277-243-T-J2-PDC complex spheroid viability
- PROCEDURE_SUMMARY: Anticancer human tumor 186277-243-T-J2-PDC cell line growth inhibition [GQUAD]; active means viability on the fitted dose curve at most 10% of control; inactive means the rest;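 note: spheroids exposed to drugs for 7 days; 100% = DMSO vehicle control viability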
- STATED_CONDITIONS: second compound 10 µM; first compound 1 µM
Reply using exactly one outcome from active, inactive

Please review the entries below; each comes with its answer.
CC(=O)O[C@H]1C(=O)[C@@]2(C)[C@H]([C@H](OC(=O)c3ccccc3)[C@]3(O)C[C@H](OC(=O)[C@H](O)[C@@H](NC(=O)c4ccccc4)c4ccccc4)C(C)=C1C3(C)C)[C@]1(OC(C)=O)CO[C@@H]1C[C@@H]2O + Cc1[nH]c2ccc(F)cc2c1-c1nc2c3cccnc3c3ncccc3c2[nH]1    active
COc1cc(C2c3cc4c(cc3C(OC3OC5COC(C)OC5C(O)C3O)C3COC(=O)C23)OCO4)cc(OC)c1O (stereo not drawn) + Cc1[nH]c2ccc(F)cc2c1-c1nc2c3cccnc3c3ncccc3c2[nH]1    inactive

Please turn your attention to the following entry.
Asked: Recorded test call requested for Cc1cccc(N(C)C(=O)C2C(O)CCN2c2nc(C)cc(C(F)(F)F)c2C#N)c1 (stereo not drawn) + Cc1[nH]c2ccc(F)cc2c1-c1nc2c3cccnc3c3ncccc3c2[nH]1
Given back: inactive

* * *

- Test system: 186277-243-T-J2-PDC complex spheroid viability
- PROCEDURE_SUMMARY: Anticancer human tumor 186277-243-T-J2-PDC cell line growth inhibition [GQUAD];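 note: spheroids exposed to drugs for 7 days; 100% = DMSO vehicle control viability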
- STATED_CONDITIONS: second compound 0.1 µM; first compound 0.0316 µM; stronger effect = lower value
Measured viability, T/C determines class: range 1 (below 60%), range 2 (60% to below 90%), range 3 (90% or more)

Solved entries:
CCc1c2c(nc3ccc(O)cc13)-c1cc3c(c(=O)n1C2)COC(=O)[C@]3(O)CC + Cc1cnc(CNC(=O)c2c(=O)c3ccc(N4CCCN(C)CC4)nc3n3c2sc2ccccc23)cn1    range 1
COc1ncnc(C2CC2)c1-c1ncc2cnn(Cc3ccc(-c4nc(C(F)(F)F)cn4C(C)C)cc3)c2n1 + Cc1cnc(CNC(=O)c2c(=O)c3ccc(N4CCCN(C)CC4)nc3n3c2sc2ccccc23)cn1    range 2
COc1ncnc(C2CC2)c1-c1ncc2cnn(Cc3ccc(-c4nc(C(F)(F)F)cn4C(C)C)cc3)c2n1 + CN(C)c1ccc(Nc2c3ccc(NC(=O)CCN4CCCC4)cc3nc3cc(NC(=O)CCN4CCCC4)ccc23)cc1    range 3
C#Cc1c(F)ccc2cc(O)cc(-c3ncc4c(N5CC6CCC(C5)N6)nc(OCC56CCCN5CC(F)C6)nc4c3F)c12 (stereo not given) + CN(C)c1ccc(Nc2c3ccc(NC(=O)CCN4CCCC4)cc3nc3cc(NC(=O)CCN4CCCC4)ccc23)cc1    range 2

Asked: Band of C#Cc1c(F)ccc2cc(O)cc(-c3ncc4c(N5CC6CCC(C5)N6)nc(OCC56CCCN5CC(F)C6)nc4c3F)c12 (stereo not given) + Cc1[nH]c2ccc(F)cc2c1-c1nc2c3cccnc3c3ncccc3c2[nH]1 ?
Given back: range 3

Asked: Place this compound in its band: Cc1cccc(N(C)C(=O)C2C(O)CCN2c2nc(C)cc(C(F)(F)F)c2C#N)c1 (stereo not given) + CN(C)c1ccc(Nc2c3ccc(NC(=O)CCN4CCCC4)cc3nc3cc(NC(=O)CCN4CCCC4)ccc23)cc1
Given back: range 3

Asked: Form: Item = COc1ccc([C@@H](O)c2cc(-c3ncnc4cc(N5CCOCC5)ccc34)c(F)cc2Cl)nn1 + Cc1cnc(CNC(=O)c2c(=O)c3ccc(N4CCCN(C)CC4)nc3n3c2sc2ccccc23)cn1 ; Class = ?
Given back: range 2

Asked: Bin this entry: CCc1c2c(nc3ccc(O)cc13)-c1cc3c(c(=O)n1C2)COC(=O)[C@]3(O)CC + CN(C)c1ccc(Nc2c3ccc(NC(=O)CCN4CCCC4)cc3nc3cc(NC(=O)CCN4CCCC4)ccc23)cc1
Given back: range 1

Asked: Consider CC(=O)O[C@H]1C(=O)[C@@]2(C)[C@H]([C@H](OC(=O)c3ccccc3)[C@]3(O)C[C@H](OC(=O)[C@H](O)[C@@H](NC(=O)c4ccccc4)c4ccccc4)C(C)=C1C3(C)C)[C@]1(OC(C)=O)CO[C@@H]1C[C@@H]2O + Cc1[nH]c2ccc(F)cc2c1-c1nc2c3cccnc3c3ncccc3c2[nH]1 . To which viability, T/C class does it belong?
Given back: range 1
